Where these numbers come from: BindingDB's records for doi:10.1016/s0960-894x(01)00378-x

- study target: Proteinase-activated receptor 1 (Homo sapiens, UniProt P25116)
- Sequence (P25116 whole entry): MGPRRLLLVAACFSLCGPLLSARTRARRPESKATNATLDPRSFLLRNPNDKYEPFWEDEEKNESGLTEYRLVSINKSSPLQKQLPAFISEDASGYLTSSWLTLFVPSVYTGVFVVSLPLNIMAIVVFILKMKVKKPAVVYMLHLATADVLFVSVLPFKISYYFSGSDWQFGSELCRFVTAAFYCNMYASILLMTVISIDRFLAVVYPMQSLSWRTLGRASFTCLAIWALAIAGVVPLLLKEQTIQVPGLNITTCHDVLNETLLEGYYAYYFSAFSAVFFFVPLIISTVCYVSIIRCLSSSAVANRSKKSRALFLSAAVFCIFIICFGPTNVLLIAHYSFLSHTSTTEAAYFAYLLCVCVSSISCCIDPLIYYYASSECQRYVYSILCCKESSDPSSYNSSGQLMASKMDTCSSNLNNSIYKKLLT
- assay text: In vitro inhibition of human platelet aggregation induced by SFLLRN-NH2 (at a concentration of 2 uM)
Below is a list of entries, each paired with its recorded IC50 value.
Express your answer in nM, writing the number without its unit.

1) Cc1ccccc1Cn1cc(CN2CCCC2)c2ccc(NC(=O)NC(Cc3ccc([N+](=O)[O-])cc3)C(=O)NC(CCCNC(=N)N)C(=O)NCc3ccccc3)cc21 (configuration not stated) : 150

As a next step, examine the compound that follows.
Qu. Using the record for NC(N)=NCCCC(NC(=O)C(Cc1ccc([N+](=O)[O-])cc1)NC(=O)Nc1ccc2c(CN3CCCC3)cn(Cc3ccc(F)cc3)c2c1)C(=O)NCc1ccccc1 (configuration not stated) , state its measured IC50.
Ans. 130
